# Tested on: Leishmania donovani
# assay details: Leishmania intramacrophage assay
# Type: functional, organism-based
# Design: scale not given: in the data most compounds retested in dose-response had high values
# test parameters: 30.3 µM; […]
Out of some 69,000 compounds screened, about 1,000 (1.4%) showed an effect of 50% or more. Shown is part of a subset that was picked to be rich in strong results.
Can you tell me Percent Effect for the items I'm about to list?
One number for each entry, in %.

Worked examples follow.
# compound, Percent Effect (%)
data = [
    ("CC(O)CCN(C)C(=O)Nc1ccc(Br)cc1 (stereo not drawn)", -0.06572),
    ("Cn1cc(C2CC(=O)NC23CCN(C(=O)Cc2ccccn2)CC3)cn1.O=C(O)C(F)(F)F (stereo not drawn)", 2.376),
    ("COC1COC2(CCN(C(=O)c3ccccc3F)CC2)C1 (stereo not drawn)", 35.35),
    ("O=C(O)C(F)(F)F.O=C(c1ncccn1)N1CCC[C@]2(C[C@@H](Oc3ncccc3F)CO2)C1", -9.266),
    ("COCCNc1cc(-c2cccc(C(=O)O)c2C)c2cc[nH]c2n1", 27.05),
    ("CC(=O)c1ccc(C(=O)N2C[C@@H]3CC[C@H](C2)N(Cc2ccccc2)C3)s1", 9.144),
    ("CCc1nc(CN2CCCN(c3ncnc4ccsc34)CC2)no1", 27.83),
    ("CCCC(=O)NCC(=O)Nc1cc(F)ccc1SCC(F)F", -46.76),
    ("CO[C@@H]1CO[C@@]2(CCCN(Cc3nc(C)cs3)C2)C1.O=C(O)C(F)(F)F", 100.6),
    ("O=C(N1CCOCC1)N1CC[C@H]2[C@@H]1CCC(=O)N2c1ccccc1", 31.55),
]

Would you be so kind as to report Percent Effect for each listed record?
1. CC(C)CCN(C)Cc1ccccc1-c1nc(C(C)C)cc(=O)[nH]1
2. CCC(C)(C)NC(=O)Cn1nc(C)nc1-c1ccccc1
3. CN(Cc1ccco1)C(=O)NCc1ccnc(SC(C)(C)C)c1
4. Cc1c(CC(C#N)C(=O)Nc2cccc(O)c2)cnn1C (stereo not drawn)
5. O=C(CN1CCCC1c1nc2cc(F)ccc2[nH]1)NCc1ccccn1 (stereo not drawn)
6. COCCn1cncc1CN1CCCC(C)(c2ccccc2)C1 (stereo not drawn)
7. Cc1nc(CN2CCN(c3ncnc4ccccc34)CC2)no1

[41.3, -5.337, 10.46, -22.11, 34.7, -2.364, 19.7]

Looking up Cn1cc(CN2CCC[C@]3(C[C@@H](Oc4ncccc4F)CO3)C2)cn1.O=C(O)C(F)(F)F.O=C(O)C(F)(F)F , I see its Percent Effect listed as 62.31

----------
Provide the reported Percent Effect of each item.
# System: Leishmania donovani
# assay details: Leishmania intramacrophage assay
# Format: functional, organism-based
# Parameters: scale not given: in the data most compounds retested in dose-response had high values
# test parameters: 30.3 µM; […]
Out of some 69,000 compounds screened, about 1,000 (1.4%) showed an effect of 50% or more. This is one part of a sample in which strong results are shown more often than they occur.
Answers are plain numbers, in %.

# compound, Percent Effect [%]
rows = [
    ("O=C1CCCN1CCCN1CCCCC1Cn1cncn1 (stereo not drawn)", 26.96),
    ("Cc1nn(C)c2cn(C(C)C(=O)NCc3ccc(F)cc3)nc12 (stereo not drawn)", 25.73),
    ("O=C(C1CC(=O)N(c2n[nH]c3cc(Br)ccc23)C1)N1CCOCC1 (stereo not drawn)", -3.266),
    ("Cc1ccsc1CN1CCc2nc3ccsc3c(=O)n2CC1.Cl", 14.2),
    ("Cc1nc(CCN)cc(N2CCOc3ccc(Cl)cc3C2)n1", 63.66),
]

Count: 7. Required value per item: Percent Effect.
1. Cc1cccc(-n2cc(CNc3ncnc4c3CCNCC4)cn2)c1
2. O=C(O)c1ccccc1-c1c(-c2ccccc2)ncn1C[C@H]1CCCN1
3. Cc1cc(=O)c(C(=O)N2CCCCC2c2ccc(F)cc2)c[nH]1 (stereo not drawn)
4. Cc1nn(C)c2cn(C(C)C(=O)NCc3ccncc3)nc12 (stereo not drawn)
5. CC(c1nc(C2CC2)no1)N(C)Cc1ccc2c(c1)OCCO2 (stereo not drawn)
6. CCc1nc(NCc2ccccn2)c2c(n1)c(C)nn2C
7. CCc1cc(CNC(=O)C2CCCN(C(=O)NCC(C)C)C2)[nH]n1 (stereo not drawn)

1. 61.6
2. 31.03
3. 7.21
4. 59.59
5. 14.22
6. -38.07
7. -11.81

----------
Assignment: determine reported Percent Effect for the given compounds.
# Test system: Leishmania donovani
# assay details: Leishmania intramacrophage assay
# Assay type: functional, organism-based
# Parameters: scale not given: in the data most compounds retested in dose-response had high values
# test parameters: 30 µM
Hit rate of the full screen: of about 69,000 compounds, about 1,000 (1.4%) showed an effect of 50% or more. Many of the other results were omitted from the sample, so strong results are more common in it than they were.
Numbers only, in %.

# compound, unit, Percent Effect
records = [
    ("Cc1cc(C)n(CC2CN(CCOc3ccccc3C#N)CCO2)n1 (configuration not stated)", "%", 10.79),
]

Below is a list of compounds. For each, state its recorded Percent Effect.
1. Cc1cnc(CN(C)C2CCN(Cc3nc4ccccc4o3)C2)o1 (configuration not stated)
2. Cc1nc2ccccc2c(=O)n1CCC(=O)N1CCCC1
3. Cc1nc2ccccc2c(=O)n1CCC(=O)N1CCCCCC1
4. CNc1nc(CNC(=O)Nc2cccc(Cl)c2OC)cs1
5. Cc1ccc(CNC(c2ccccc2)c2nccn2C)cc1.Cl (configuration not stated)
6. O=C(NCCn1ccnc1)N1CCCC1c1ccc2c(c1)OCCO2 (configuration not stated)

1. 8.725
2. 19.05
3. 21.32
4. 28.86
5. -15.51
6. 14.25

Provide Percent Effect for all items below, preserving their order.
1. CCCC1CCCN(Cc2csc(-c3ncccn3)n2)CC1 (configuration not stated)
2. CC(C)(C)n1ncc2c1CCCC2NCc1cccc2c1OCCO2 (configuration not stated)
3. CCC(O)CN1CCN(C(=O)c2ccn(C)c(=O)c2)CC1 (configuration not stated)
4. CC(Cn1ccnc1)NC(=O)N1CCN(Cc2ccsc2)CC1 (configuration not stated)
5. Cc1nnc(CN(C)C2CCN(Cc3nc4ccccc4n3C)C2)o1 (configuration not stated)
6. c1cnnc(N2CCCC2CNCc2nc(-c3ccoc3)no2)c1 (configuration not stated)
7. O=C(CN1CCOC(Cn2cccn2)C1)NCc1ccco1 (configuration not stated)
8. Cc1cn2c(n1)CCC(NC(=O)c1oc(Br)cc1C)C2 (configuration not stated)

[77.24, 39.91, 25.79, 56.49, 31.75, 14.13, 30.39, 33.37]

----------
# System: Leishmania donovani
# assay details: Leishmania intramacrophage assay
# Assay type: functional, organism-based
# Parameters: scale not given: in the data most compounds retested in dose-response had high values
# test parameters: 30.3 µM; […]
Out of some 69,000 compounds screened, about 1,000 (1.4%) showed an effect of 50% or more. Many of the other results were omitted from the sample, so strong results are more common in it than they were.
Would you mind telling me the reported Percent Effect of each entry?
Respond with the figure and its unit, in that order.

The following compounds have reported results that may help.
# compound, target desc, Percent Effect
measured = [
    ("C[C@@H]1CN(Cc2cc3ccccc3n2C)CC[C@@]1(O)C1CC1", "Leishmania donovani", "34.38%"),
    ("O=C(Cc1ccsc1)N1CCN(CC2CC2)c2ncccc2C1.O=C(O)C(F)(F)F", "Leishmania donovani", "13.41%"),
]

Report Percent Effect for each item below.
1. CCN(CC)C(CNC(=O)c1ccnc(N(C)C)c1)c1ccsc1 (stereo unspecified)
2. CCC[C@H]1CN(S(C)(=O)=O)C[C@@H]1NC(=O)CCCn1ccnc1
3. CCN(CCOC)C(=O)c1ccc2c(c1)nc(N1CC[C@H](O)C1)n2C
4. CCOc1ccc(CN2CCC(c3nc(C)cc(C)n3)C2)cc1CO (stereo unspecified)
5. Cc1nc2[nH]cnc(Nc3ccn(C)n3)c-2n1
6. CCc1nsc(NC2CC(=O)N(C3CC3)C2)n1 (stereo unspecified)
7. Cc1ccc2c(c1)cc(CN1CC[C@](C)(O)[C@H](C)C1)n2C

["1.995%", "-3.317%", "20.98%", "20.63%", "-6.289%", "25.34%", "50.4%"]

// for each compound below, give its Percent Effect
1. CC(C)(C)n1nnnc1CN(CCc1ccccc1)Cc1ccccc1
2. CCc1cnc(CN(C)C2CCN(CC3CCC3)C2)o1 (stereo unspecified)
3. COc1ccc(CCN2CCCC(CN(C)Cc3[nH]cnc3C)C2)cc1 (stereo unspecified)
4. COc1ccc2c(ccn2CC(=O)NC[C@@H]2CCCN3CCCC[C@H]23)c1
5. Cc1cc(C)c2c(c1)C(CC(=O)O)C(=O)N2 (stereo unspecified)

["46.18%", "50.08%", "-2.681%", "29.51%", "12.49%"]

// for each compound in input: emit Percent Effect
1. Cc1nc2[nH]cnc(Nc3cc(C)n(C)n3)c-2n1
2. CC(C)(C)CCS(=O)(=O)NCCc1csc(N2CCCC2)n1
3. Cc1nc(C)n(CC2CN(Cc3noc(C4CC4)n3)CCO2)n1 (stereo unspecified)

["75.58%", "30.66%", "-6.202%"]

Required: Percent Effect, one value per compound below.
1. Cc1nc(CN2CCc3ncnc(-c4ccsc4)c3CC2)cs1.O=C(O)C(F)(F)F
2. Cc1nn(C)c(C)c1OCC(=O)NCC(O)Cc1ccccc1 (stereo unspecified)
3. CCC(C)CS(=O)(=O)NCCc1csc(N2CCCC2)n1 (stereo unspecified)

1. 54.86%
2. -11.07%
3. 43.99%

Noted for c1coc(CNCC2Cn3nncc3CO2)c1 (stereo unspecified) : its Percent Effect reads 55.14%

Data credit: ChEMBL document CHEMBL3988442
